target: Recombinant human his-tagged IGF 1R extracellular domain protein (human) (UniProt P08069); test: SPR, captured antibody, pH 7.4
Value Kind: kon (M⁻¹ s⁻¹)
One number for each entry, in M⁻¹ s⁻¹.

• VRDN-03120 (antibody, V domains shown) VH: EVQLVESGGGVVQPGRSLRLSCAASGFTFSSYSMHWVRQAPGKGLEWVAVIWYDGSSKYYADSVKGRFTISRDNSKNTLYLQMNSLRAEDTAVYYCARELGRRYFDIWGQGTLVTVSS VL: EIVMTQSPATLSVSPGERATLSCRASQGVSSYLAWYQQKPGQAPRLLIYGASTRATGIPARFSGSGSGTEFTLTISSLQSEDFAVYYCQQRSRWPPWTFGQGTKLEIK = 322000
• VRDN-03045 (antibody, V domains shown) VH: QVELVESGGGVVQPGRSQRLSCAASGFTFSSYGMHWVRQAPGKGLEWVAIIWFDGSSTYYADSVRGRFTISRDNSKNTLYLQMNSLRAEDTAVYFCARELGRRYFDLWGRGTLVSVSS VL: EIVLTQSPATLSLSPGERATLSCRASQSVSHYLAWYQQKPGQAPRLLIYDASKRATGIPARFSGSGSGTDFTLTISSLEPEDFAVYYCQQRSKWPPWTFGQGTKVESK = 105000

Input VRDN-03101 (antibody, V domains shown) VH: QVQLVESGGGVVQPGRSLRLSCAASGFTFSDYTMHWVRQAPGKGLEWVAIIWFDGSSKYYADSVKGRFTISRDNSKNTLYLQMNSLRAEDTAVYYCARELGRRYFDIWGRGTLVTVSS VL: EIVLTQSPATLSLSPGERATLSCRASQGVSSYLAWYQQKPGQAPRLLIYGASTRATGIPARFSGSGSGTDFTLTISSLEPEDFAVYYCQQRSRWPPWTFGQGTKLEIK , output reported kon.
89300
